Kindly state AK for each of the entries shown.
- System: SH-SY5Y cells
- Test summary: AK (adenylate kinase) release ToxiLight cytotoxicity assay; also: reference of the scale not given here
- Experimental setup: PKIS2 primary screening
Answer with a number only.

## Task So what does the record say about AK for Cn1cc(-c2ccc3c(c2)CCN3C(=O)Cc2ccccc2Cl)c2c(N)ncnc21 [UNC10225172A] ?
## Result 106.54

## Task Which value of AK has been reported for COc1cc(Nc2nccc(N3CCC(NC(=O)c4cc5ccccc5s4)C3)n2)cc(OC)c1OC (centres unmarked) in the records?
## Result 89.79

## Task Look at this molecule and give its reported AK. Fc1cc(Cl)ccc1Nc1ccnc2cc(-c3ccc(CN4CCSCC4)o3)ccc12 [UNC10225290A]
## Result 104.94

## Task Which AK value belongs to COC(=O)c1cccc(NC(=O)NC2CCN(c3ccnc(Nc4cc(OC)c(OC)c(OC)c4)n3)C2)c1 (centres unmarked) ?
## Result 115.43

## Task For the molecule CN(C)CCN(C)C(=O)c1cc(-c2ccncc2)c(-c2ccc(Cl)c(O)c2)o1.Cl.Cl [UNC10225256A] , what AK is on record?
## Result 88.55

## Task Given COc1ccc(-c2nc3n(c2-c2ccncc2)CCC3)cc1 [UNC10225334A] , state its recorded AK.
## Result 77.50

## Task Which AK reading was recorded for the molecule COc1ccc(Nc2nccc(N3CCC(NC(=O)c4cccc(NC(C)=O)c4)C3)n2)cc1 (centres unmarked) ?
## Result 83.81

## Task So what does the record say about AK for NCCNS(=O)(=O)c1ccc(-c2ccnc3[nH]ccc23)cc1 [UNC10225023A] ?
## Result 82.12

## Task AK lookup needed for "CNC(=O)c1ccccc1Nc1nc(Nc2ccc(N3CCOCC3)cc2)ncc1Cl" , thanks.
## Result 149.21

## Task Give the measured AK of Fc1cc(Cl)ccc1Nc1ccnc2cc(I)ccc12 [UNC10225189A] .
## Result 112.41

## Task Using the record for "Cc1cccc(-c2nc(Nc3ccc4c(cnn4C)c3)c3ccccc3n2)n1" , report its AK.
## Result 73.05

## Task Form field: reported AK of Cl.c1ccc(Cn2cnc3cc(Nc4ncnc5ccccc45)ccc32)cc1 [UNC10225378A]
## Result 86.98

## Task # get_value(readout='AK', item= O=C(c1ccc(-c2cc(-c3c[nH]nc3-c3ccccn3)ccn2)cc1)N1CCCC1 [UNC10225230A] )
## Result 75.56

## Task Need AK, item Cl.O=S(=O)(c1cccc(F)c1)c1ccc(Nc2ncnc3cc(Br)sc23)cc1Cl [UNC10224990A]
## Result 136.08
